Tested System: T1, hRET.mmh (human, UniProt P07949 29-635, biotinylated in the ELISA of Example 4 (biot-hRET.mmh); not in the SPR of Example 3)
T1 construct: also called biot-hRET.mmh; soluble monomeric human RET
Protocol Details: competition sandwich ELISA: 1 nM biot-hRET.mmh + antibody, plate-coated GDNF/GFRα1 co-complex
Measurement Kind: % Max Blocking (%)
Could you give me the number in %? Just the number is fine.

H4H8071P (antibody, human IgG4, V domains shown, human IgG4 Fc (H4H prefix)) VH: EVQLVESGGGLVQPGGSLRLSCAASGFTFTTYFMSWVRQAPGKGLEWVSGISGSGTSTFYVDSMKGRFTISRDNSKNTLYLQMNSLRVEDTAVYFCAKENTYGHFDFWGQGTLVTVSS VL: DIQLTQSPSFLSASVGDRVTITCWASQDISSHLAWYQQKPGKAPKVLIYDASTLQSGVPSRISGSGSGTEFTLTISSLQPEDFAAYYCQQLDGYPYTFGQGTKLEIK ... 72

Prompt: Give me measured % Max Blocking, please, for this binder: H4H8066P (antibody, human IgG4, V domains shown, human IgG4 Fc (H4H prefix)) VH: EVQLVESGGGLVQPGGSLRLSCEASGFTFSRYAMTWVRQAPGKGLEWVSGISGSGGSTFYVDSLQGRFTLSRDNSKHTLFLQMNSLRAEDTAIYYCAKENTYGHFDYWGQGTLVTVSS VL: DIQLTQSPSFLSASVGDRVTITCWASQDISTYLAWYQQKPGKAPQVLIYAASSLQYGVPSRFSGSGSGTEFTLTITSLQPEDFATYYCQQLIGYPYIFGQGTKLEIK
Completion: 57

Prompt: Identify the reported % Max Blocking for the following entry. H4H8085P (antibody, human IgG4, V domains shown, human IgG4 Fc (H4H prefix)) VH: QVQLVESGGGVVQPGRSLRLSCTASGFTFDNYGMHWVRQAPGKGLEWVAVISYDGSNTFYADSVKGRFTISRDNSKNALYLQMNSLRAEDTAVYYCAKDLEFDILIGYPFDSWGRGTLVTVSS VL: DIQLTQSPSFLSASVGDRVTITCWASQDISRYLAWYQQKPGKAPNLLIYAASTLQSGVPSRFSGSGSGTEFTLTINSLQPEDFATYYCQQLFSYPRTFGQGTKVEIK
Completion: 96
